Where do these numbers come from? They come from PubChem BioAssay (NCI).

System: SN12C renal
Assay: NCI tumour cell line growth inhibition, 48 h
readout: TGI

Solved cases (5 shown):
Memo: CC(C)CNc1nc(N=[N+]=[N-])nc(NCC(C)C)n1 , reported TGI: > 10 µM

Lab book: TGI of COc1ccc(NC(=O)O[C@H]2[C@H](O[C@H]3[C@@H](O)COC(O[C@H]4C[C@H]5[C@@H]6CC=C7C[C@@H](O)CC[C@]7(C)[C@H]6CC[C@]5(C)[C@H]4[C@H](C)C(=O)CCC(C)C)[C@@H]3OC(C)=O)OC[C@@H](O)[C@@H]2O)cc1 (some centres undefined) noted as > 100 µM

Value of measured TGI for the entry CC(C)NC(=O)O/N=C1\CCC2[C@@H]3CC=C4C[C@@H](OC(=O)NC(C)C)CC[C@]4(C)C3CC[C@]12C (some centres undefined) : 3.14 µM

Reported TGI of C[N+]1=c2c3cccc4cccc(c(=O)n2CCC1)c43 : 52.7 µM

# TGI (compound: O=C1c2ccccc2C(=O)c2sc(Nc3ccc(Cl)c(Cl)c3)nc21 ) is 3.23 µM

More entries:
Quick note, TGI for O=[N+]([O-])c1ccc(N2N=C(c3ccc4ccccc4c3O)CC2c2ccc(Cl)cc2Cl)c([N+](=O)[O-])c1 (centres undefined) landed at > 100 µM

Entry O=C1CSC(/C=C/c2ccccc2)N1c1ccc(-n2c(-c3ccccc3)nc3ccccc3c2=O)cc1 (centres undefined) — recorded TGI = > 100 µM

Sample CCOc1ccc(NC(=O)CCC(=O)NN)cc1 ; TGI observed: > 100 µM

Lab note: measured TGI of COc1cc(C2C(C#N)=C(N)Oc3cc4c(cc32)OCO4)cc2c1OCO2 (centres undefined) was > 100 µM
